# System: MCF7 breast
# protocol-details: NCI-60 one-dose screen, 48 h
# condition-details: 10 µM unless noted
The panel holds about 83,000 compounds, 20% with a hit somewhere; the sample as a whole holds those more often. Active and inactive are the calls of the source. How the source made its calls: active means growth percent below 10; inactive means the rest.
Possible outcomes: 1 = active, -1 = inactive

>  <molecule>
O=C1NC(SCc2ccc(F)cc2)=N/C1=C/c1cccc(OCc2ccc(Cl)cc2)c1

>  <assigned-class>
-1

$$$$
>  <molecule>
Cc1nc2sc(C(=O)Nc3ccccc3)c(N)c2cc1C(C)O (centres undefined)

>  <assigned-class>
-1

$$$$
>  <molecule>
CCn1cc(C(=O)O)c(=O)c2cc(F)c(N3CCN(CC(=O)Nc4ccc(/C(C)=N/OC)cc4)CC3)cc21

>  <assigned-class>
-1

$$$$
>  <molecule>
CCOC(=O)C1=C(C)n2nc(CC#N)c(C#N)c2NC1c1ccc(CC)cc1 (centres undefined)

>  <assigned-class>
-1

$$$$
>  <molecule>
N#Cc1nc(-c2ccccc2)oc1S(=O)(=O)NCC(c1ccc(Cl)cc1)N1CCCCC1 (centres undefined)

>  <assigned-class>
-1

$$$$
>  <molecule>
O=C(Nc1cc(=O)[nH]c(=O)[nH]1)C(Cl)Cl

>  <assigned-class>
-1

$$$$
>  <molecule>
O=S(=O)(O)c1ccc(N=NSc2ccc3ccccc3c2)cc1

>  <assigned-class>
-1

$$$$
>  <molecule>
Nc1c(C(=O)Nc2ccccn2)sc2nc3c(cc12)C(=O)CCC3

>  <assigned-class>
-1

$$$$
>  <molecule>
O=C1CCc2ccccc2N1

>  <assigned-class>
-1

$$$$
>  <molecule>
CN1CCN(/C=C2\CC(C(=O)NCc3ccc(Cl)cc3Cl)NC2=O)CC1 (centres undefined)

>  <assigned-class>
-1

$$$$
>  <molecule>
C=C1C(=O)O[C@H]2[C@H]1CC/C(COC(=O)n1ccnc1)=C\CC[C@@]1(C)O[C@@H]21

>  <assigned-class>
-1

$$$$
>  <molecule>
C=C(C)[C@@H]1CC[C@]2(C(N)=O)CC[C@]3(C)[C@H](CC[C@@H]4[C@@]5(C)CCCNC(C)(C)[C@@H]5CC[C@]43C)[C@@H]12

>  <assigned-class>
-1

$$$$
>  <molecule>
CC(=O)Nc1nc2c(c(N)c1C#N)C(c1cccc(Cl)c1)C1=C(CCCC1=O)N2c1sc2c(c1C#N)CCCC2 (centres undefined)

>  <assigned-class>
-1

$$$$
>  <molecule>
COc1ccc(C2N(c3cc(OC)c(OC)c(OC)c3)C(=O)C2(F)F)cc1F (centres undefined)

>  <assigned-class>
-1

$$$$
>  <molecule>
N#CCNc1ccc(C(=O)O)cc1

>  <assigned-class>
-1

$$$$
>  <molecule>
CCc1n(Cc2ccc3ccccc3c2)c2ccccc2[n+]1Cc1ccc2ccccc2c1

>  <assigned-class>
-1

$$$$
>  <molecule>
Cn1c2ccccc2c2c(OC(=O)c3ccccc3)c3c(nc21)-c1ccccc1C3

>  <assigned-class>
-1

$$$$
>  <molecule>
C=CCn1c(SCC(=O)Nc2ccc(C(=O)/C=C/c3ccc(Cl)cc3)cc2)nnc1-c1cc(OC)c(OC)c(OC)c1

>  <assigned-class>
-1

$$$$
>  <molecule>
CC(C)Cc1cc(CNC(=O)C2[C@H]3CN(C(=O)c4ccccc4)C[C@@H]23)nn1-c1ccccc1 (some centres undefined)

>  <assigned-class>
-1

$$$$
>  <molecule>
Cc1nc2sc(C(=O)Nc3ccccc3Cl)c(N)c2cc1C(C)O (centres undefined)

>  <assigned-class>
-1

$$$$
>  <molecule>
Cc1ccc(C2=N[C@H]3CCC[C@@H]3N(c3ccccc3)C(C(Cl)Cl)=N2)cc1

>  <assigned-class>
-1

$$$$
>  <molecule>
CC(C)NS(=O)(=O)c1cccc(-c2ccc3c4c(n(CCCN(C)C)c(=O)c3c2)-c2ccccc2C4=O)c1

>  <assigned-class>
-1

$$$$
>  <molecule>
CC(C)NS(=O)(=O)c1cccc(-c2ccc3c(=O)n(CCCN)c4c(c3c2)C(=O)c2ccccc2-4)c1

>  <assigned-class>
-1

$$$$
>  <molecule>
O=C(Nc1ccc(S(=O)(=O)NC2CCCCCC2)cc1)C(c1ccccc1)S(=O)(=O)c1ccc(F)cc1 (centres undefined)

>  <assigned-class>
1

$$$$
>  <molecule>
O=C(Nc1nc2ccc(C(F)(F)F)cc2s1)c1cc(Cl)ccc1O

>  <assigned-class>
1

$$$$
>  <molecule>
O=C(Nc1ccc2ncnc(Nc3cccc(C(F)(F)F)c3)c2c1)c1cccs1

>  <assigned-class>
-1

$$$$
>  <molecule>
COCCOCCOCc1n(Cc2ccc3ccccc3n2)c2ccccc2[n+]1Cc1ccc2ccccc2n1

>  <assigned-class>
1

$$$$
>  <molecule>
C=C(C)[C@@H]1CC[C@]2(C(=O)OCCOCCOCC[P+](c3ccccc3)(c3ccccc3)c3ccccc3)CC[C@]3(C)[C@H](CC[C@@H]4[C@@]5(C)CC[C@H](OC(=O)C(Cl)Cl)C(C)(C)[C@@H]5CC[C@]43C)[C@@H]12

>  <assigned-class>
1

$$$$
>  <molecule>
CCOC(=O)c1c(C)nc2c(c1N)/C(=C/c1cccs1)C(=O)N2c1ccc(OC)cc1

>  <assigned-class>
-1

$$$$
>  <molecule>
CN(C)CCCn1c2c(c3cc(-c4cccc(S(N)(=O)=O)c4)ccc3c1=O)C(=O)c1ccccc1-2

>  <assigned-class>
-1

$$$$
>  <molecule>
Cc1cc(O)cc(O)c1N=NC1=NCCS1

>  <assigned-class>
-1

$$$$
>  <molecule>
CCCCc1n(Cc2ccc3ccccc3c2)c2ccccc2[n+]1Cc1ccc2ccccc2c1

>  <assigned-class>
1

$$$$
>  <molecule>
CC(=O)Oc1c2c(nc3c1c1ccccc1n3Cc1ccccc1)-c1ccccc1C2

>  <assigned-class>
-1

$$$$
>  <molecule>
COc1ccc2nc(-c3ccc(Cl)cc3)cc(-c3nnc(SCC(=O)Nc4ccc(/C(C)=N\O)cc4)o3)c2c1

>  <assigned-class>
1

$$$$
>  <molecule>
CCC[S@](=O)c1ccc2nc(NC(=O)OC)[nH]c2c1

>  <assigned-class>
-1

$$$$
>  <molecule>
O=C1c2ccccc2C(=O)c2c1oc1c2c(=O)[nH]c2ccccc21

>  <assigned-class>
-1

$$$$
>  <molecule>
COc1cc(C(C)c2ccc3c(ccn3C)c2)cc(OC)c1OC (centres undefined)

>  <assigned-class>
-1

$$$$
>  <molecule>
N#Cc1ccc(Oc2ccc3ccc(=O)oc3c2)cc1

>  <assigned-class>
-1

$$$$
>  <molecule>
O=c1c2ccccc2oc2ccc(OCCCCCN3CCCCCC3)cc12

>  <assigned-class>
-1

$$$$
